Every entry's value here was drawn from the supplement of paper PMC6555819.

test system: RARg:RXRa (NR concentration 270 nM, RXRa partner concentration 90 nM); assay: PBM binding z-score (relative to random genomic background probes); higher = stronger binding; sequences stand for … in GC…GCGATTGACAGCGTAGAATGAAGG
READOUT KIND: PBM binding z-score

Study these solved cases before continuing.
In [3]: df
Out[3]:
                     primary_sequence                       experimental_target         readout_kind  result
0  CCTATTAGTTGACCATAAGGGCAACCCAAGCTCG  RARg:RXRa (NR concentration 270 nM, RXRa partner concentration 90 nM)  PBM binding z-score    1.44
1  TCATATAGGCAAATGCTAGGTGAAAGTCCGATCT  RARg:RXRa (NR concentration 270 nM, RXRa partner concentration 90 nM)  PBM binding z-score  0.0737
2  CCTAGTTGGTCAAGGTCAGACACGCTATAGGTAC  RARg:RXRa (NR concentration 270 nM, RXRa partner concentration 90 nM)  PBM binding z-score    3.19
3  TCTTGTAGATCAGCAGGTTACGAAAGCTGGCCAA  RARg:RXRa (NR concentration 270 nM, RXRa partner concentration 90 nM)  PBM binding z-score  -0.124
4  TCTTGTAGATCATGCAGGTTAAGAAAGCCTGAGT  RARg:RXRa (NR concentration 270 nM, RXRa partner concentration 90 nM)  PBM binding z-score   0.108

In: Record request: PBM binding z-score value, item `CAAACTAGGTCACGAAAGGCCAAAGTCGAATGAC`
Out: 5.29

In: Also need `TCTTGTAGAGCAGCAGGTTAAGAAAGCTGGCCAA` , thanks.
Out: -0.394

In: Also need `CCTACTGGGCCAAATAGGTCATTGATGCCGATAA` , thanks.
Out: 2.17

In: Also need `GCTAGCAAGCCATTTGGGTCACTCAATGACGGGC` , thanks.
Out: 0.373

In: Also need `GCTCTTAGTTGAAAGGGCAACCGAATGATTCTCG` , thanks.
Out: 1.34

In: Also need `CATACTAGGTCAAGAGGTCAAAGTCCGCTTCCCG` , thanks.
Out: 8.1

In: Also need `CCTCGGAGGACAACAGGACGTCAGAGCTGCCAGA` , thanks.
Out: 0.272

In: Also need `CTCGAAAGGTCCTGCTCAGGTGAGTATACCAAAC` , thanks.
Out: 0.95

In: Also need `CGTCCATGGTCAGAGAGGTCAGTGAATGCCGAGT` , thanks.
Out: 3.16

In: Also need `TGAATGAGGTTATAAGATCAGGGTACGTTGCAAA` , thanks.
Out: 1.49
